Endpoint: GI50. System: HeLa. Items follow.
Your answer is read as nM, so omit the unit and give the number.

{"columns": ["Molecule", "GI50, nM"],
 "data": [
  ["C/C=C\\[C@H](C)[C@H]1OC1(C)[C@@H](O[Si](C)(C)C(C)(C)C)[C@@H](CO[Si](C)(C)C(C)(C)C)C(=O)[C@H](CO[Si](C)(C)C(C)(C)C)[C@@H](CC(=O)CC)O[Si](C)(C)C(C)(C)C (stereo partly drawn) [Compound 19b]", 12000],
  ["C/C=C\\[C@H](C)[C@H]1O[C@@]1(C)[C@@H](O)[C@@H](COC(C)=O)C(=O)[C@H](CO)[C@@H](O)CC(=O)CC", 71.7]
]}

Consider the record given below.
Q: Report the value of GI50 obtained on HeLa for "C/C=C\[C@H](C)[C@H]1O[C@@]1(C)[C@@H](O)[C@@H](CO)C(=O)[C@H](CO)[C@@H](O)CC(=O)CC" .
A: 72.8
